# Tested on: HL-60
# test-name: Cytotoxicity against human HL60 cells by MTT assay
# Format: functional, cell-based
experimental-readout: log10 IC50 (log10 of the value in µM)
Please be aware that the numbers have been log10-transformed from IC50 in µM.

log10 IC50 for `CC(=O)O[C@H]1[C@@H](C(C)C)[C@H](OC(C)=O)C[C@]2(C=O)O[C@@H]2CC[C@@]2(C)O[C@@H]12` is 2.42

log10 IC50 for `CC(=O)OC/C1=C/CC[C@@]2(C)O[C@@H]2[C@@H](OC(C)=O)[C@@H](C(C)C)[C@H](OC(C)=O)C1` is 2.47

log10 IC50 for `C=C1CC/C=C(/COC(C)=O)C[C@@H](OC(C)=O)[C@H](C(C)C)[C@H](OC(C)=O)C1=O` is 1.30

log10 IC50 for `C=C1CC[C@@H](C(C)C)[C@H]2[C@@H]1CC[C@@H]2C(=O)CO` is 2.38

log10 IC50 for `CC(=O)O[C@@H]1/C=C(\C)CC[C@H]2O[C@@]2(C=O)C[C@@H](OC(C)=O)[C@@H]1C(C)C` is 2.06
